- Assayed System: Cellular tumor antigen p53 (Homo sapiens) (UniProt P04637)
- Sequence (P04637 whole entry, looked up): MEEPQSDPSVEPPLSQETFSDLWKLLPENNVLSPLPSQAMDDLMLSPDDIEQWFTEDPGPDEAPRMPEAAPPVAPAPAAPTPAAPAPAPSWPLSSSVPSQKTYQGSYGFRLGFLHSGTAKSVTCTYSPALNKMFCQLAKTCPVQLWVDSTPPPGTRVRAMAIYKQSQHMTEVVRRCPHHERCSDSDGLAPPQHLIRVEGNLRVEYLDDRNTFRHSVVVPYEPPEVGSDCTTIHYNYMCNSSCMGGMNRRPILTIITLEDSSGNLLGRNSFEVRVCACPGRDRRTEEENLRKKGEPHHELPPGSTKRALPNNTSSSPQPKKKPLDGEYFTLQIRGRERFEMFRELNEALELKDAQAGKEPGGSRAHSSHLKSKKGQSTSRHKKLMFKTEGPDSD
- Experiment Description: TOX21_p53_BLA_p5_ratio: Tox21 HCT-116 p53 Agonism Beta-lactamase Assay, Ratio, Phase 5 (AID 2283599)
- Description: TOX21_p53_BLA_p5 is a cell-based, single-readout assay that uses HCT116, a human intestinal cell line, […] in a 1536-well plate.TOX21_p53_BLA_p5_ratio is an assay readout measuring reporter gene via receptor activity and designed using inducible reporter (beta lactamase induction) detected with GAL4 b-lactamase reporter gene. […] This assay endpoint, TOX21_p53_BLA_p5_ratio, was analyzed in the positive analysis fitting direction relative to DMSO as the negative control and baseline of activity. […]
Records with an inconclusive call do not appear. Activity calls are given as the source filed them. The calls were made as follows: active = hit-call score of the fitted dose curve at least 0.9, where 1 is the maximum; inconclusive = response in the unintended direction; inactive = score below 0.9.
Outcomes: true (1) for active, false (0) for inactive

[
  {
    "Compound": "Cc1ccc(OP(=O)(Oc2ccc(C)cc2)Oc2ccc(C)cc2)cc1 (tested in a mixture with another compound)",
    "Assayed System": "Cellular tumor antigen p53 (Homo sapiens) (UniProt P04637)",
    "Class Name": "false (0)"
  },
  {
    "Compound": "O=C(O)CBr",
    "Assayed System": "Cellular tumor antigen p53 (Homo sapiens) (UniProt P04637)",
    "Class Name": "false (0)"
  },
  {
    "Compound": "CCC(C)Br (stereo not given)",
    "Assayed System": "Cellular tumor antigen p53 (Homo sapiens) (UniProt P04637)",
    "Class Name": "false (0)"
  },
  {
    "Compound": "O=C(Cl)c1ccccc1F",
    "Assayed System": "Cellular tumor antigen p53 (Homo sapiens) (UniProt P04637)",
    "Class Name": "false (0)"
  },
  {
    "Compound": "CC(=O)OCC1=C(C(=O)O)N2C(=O)[C@@H](N)[C@H]2SC1",
    "Assayed System": "Cellular tumor antigen p53 (Homo sapiens) (UniProt P04637)",
    "Class Name": "false (0)"
  },
  {
    "Compound": "O=[N+]([O-])c1cccc(O)c1",
    "Assayed System": "Cellular tumor antigen p53 (Homo sapiens) (UniProt P04637)",
    "Class Name": "false (0)"
  },
  {
    "Compound": "Oc1cc(Cl)c(Cl)c(Cl)c1Cl",
    "Assayed System": "Cellular tumor antigen p53 (Homo sapiens) (UniProt P04637)",
    "Class Name": "true (1)"
  },
  {
    "Compound": "Nc1ccccc1C(=O)Oc1ccc2ccccc2c1",
    "Assayed System": "Cellular tumor antigen p53 (Homo sapiens) (UniProt P04637)",
    "Class Name": "true (1)"
  },
  {
    "Compound": "CN1C(=O)NC(=O)C(C)(C2=CCCCC2)C1=O (stereo not given)",
    "Assayed System": "Cellular tumor antigen p53 (Homo sapiens) (UniProt P04637)",
    "Class Name": "false (0)"
  },
  {
    "Compound": "O=CC=Cc1ccccc1",
    "Assayed System": "Cellular tumor antigen p53 (Homo sapiens) (UniProt P04637)",
    "Class Name": "false (0)"
  },
  {
    "Compound": "CNC(=O)Oc1ccccc1C1OCCO1",
    "Assayed System": "Cellular tumor antigen p53 (Homo sapiens) (UniProt P04637)",
    "Class Name": "false (0)"
  },
  {
    "Compound": "Oc1ccc(C2(c3ccc(O)cc3)CCCCC2)cc1",
    "Assayed System": "Cellular tumor antigen p53 (Homo sapiens) (UniProt P04637)",
    "Class Name": "true (1)"
  },
  {
    "Compound": "CN(C)c1ccc(N(C)C)cc1",
    "Assayed System": "Cellular tumor antigen p53 (Homo sapiens) (UniProt P04637)",
    "Class Name": "false (0)"
  },
  {
    "Compound": "CC(C)NCC(O)c1ccc(N)c(C#N)c1 (stereo not given)",
    "Assayed System": "Cellular tumor antigen p53 (Homo sapiens) (UniProt P04637)",
    "Class Name": "false (0)"
  },
  {
    "Compound": "CCOC(=O)C(Cl)C(C)=O (stereo not given)",
    "Assayed System": "Cellular tumor antigen p53 (Homo sapiens) (UniProt P04637)",
    "Class Name": "false (0)"
  },
  {
    "Compound": "S=C=NCc1ccccc1",
    "Assayed System": "Cellular tumor antigen p53 (Homo sapiens) (UniProt P04637)",
    "Class Name": "false (0)"
  },
  {
    "Compound": "Oc1ccc2c3c1O[C@H]1[C@@H](O)C=C[C@H]4[C@H](C2)NCC[C@@]341",
    "Assayed System": "Cellular tumor antigen p53 (Homo sapiens) (UniProt P04637)",
    "Class Name": "false (0)"
  },
  {
    "Compound": "Cc1ccccc1CCl",
    "Assayed System": "Cellular tumor antigen p53 (Homo sapiens) (UniProt P04637)",
    "Class Name": "false (0)"
  },
  {
    "Compound": "CCC1C(C)=NN=C(c2ccc(OC)c(OC)c2)c2cc(OC)c(OC)cc21 (stereo not given)",
    "Assayed System": "Cellular tumor antigen p53 (Homo sapiens) (UniProt P04637)",
    "Class Name": "false (0)"
  },
  {
    "Compound": "CCCC=NO",
    "Assayed System": "Cellular tumor antigen p53 (Homo sapiens) (UniProt P04637)",
    "Class Name": "false (0)"
  }
]
